molecular target: Cathepsin S (Homo sapiens)
Sequence (P25774 whole entry): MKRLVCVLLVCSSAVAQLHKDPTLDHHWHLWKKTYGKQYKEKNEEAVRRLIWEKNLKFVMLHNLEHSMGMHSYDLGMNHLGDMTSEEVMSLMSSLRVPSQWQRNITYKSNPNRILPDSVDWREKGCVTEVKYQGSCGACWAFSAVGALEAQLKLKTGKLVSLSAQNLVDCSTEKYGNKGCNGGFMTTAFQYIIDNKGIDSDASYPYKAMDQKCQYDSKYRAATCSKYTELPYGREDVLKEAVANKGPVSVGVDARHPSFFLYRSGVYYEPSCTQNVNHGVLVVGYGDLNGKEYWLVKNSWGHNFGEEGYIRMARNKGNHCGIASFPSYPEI
OBSERVABLE: pIC50
Keep it numeric: pIC50 is minus log10 of the concentration in mol/L.

Prompt: # query: pIC50 | item CN(C)C(=O)CN1CCC(CCOc2ccc(-c3nc(C#N)nc4c3ncn4C)cc2C(F)(F)F)CC1 [US9328118, 72] | system: Cathepsin S (Homo sapiens)
Completion: 8.80
